PROCEDURE TEXT: In vitro liver microsomal stability, mouse liver microsomes
PROPERTY MEASURED: CLint scaled at 1 μM

• [2H]C([2H])([2H])NC(=O)c1ccc(N2CCN(Cc3ccc4c([nH]c(=O)c5cccnc54)c3F)CC2)c(F)n1 = < 38 mL/min/kg
